Sourced from patent EP0115547B1

In this section we review reported Kehrwert der pyrimidin-dimeräquivalenten Dosis values for a set of molecules.
tested on: T7-Phagen; details: pH 7

Recorded results for 3 molecules are shown here.
molecule: CN(N=O)C(N)=O [Nitrosomethylharnstoff]
target entity: T7-Phagen
reported result: 0,76 1 Mol . Minute
//
molecule: CN(Cc1cnc2nc(N)nc(N)c2n1)c1ccc(C(=O)N[C@@H](CCC(=O)O)C(=O)O)cc1 [4-Desoxy-4-amino-10-methylfolsäure]
target entity: T7-Phagen
reported result: 11 1 Mol . Minute
//
molecule: CS(=O)(=O)OCCNCC(O)C(O)CNCCOS(C)(=O)=O (stereo not shown)
target entity: T7-Phagen
reported result: 111 1 Mol . Minute

Ask | State its Kehrwert der pyrimidin-dimeräquivalenten Dosis on T7-Phagen: CC(=O)N1CC1 [N-(Acetyl)-äthylenimin]
Reply | 33 1 Mol . Minute
